Numbers sourced from ChEMBL document CHEMBL1133784.

Listing: Ki of selected compounds
experimental.system: NS3 (Hepatitis C virus, UniProt A3EZJ3)
Sequence (A3EZJ3 whole entry): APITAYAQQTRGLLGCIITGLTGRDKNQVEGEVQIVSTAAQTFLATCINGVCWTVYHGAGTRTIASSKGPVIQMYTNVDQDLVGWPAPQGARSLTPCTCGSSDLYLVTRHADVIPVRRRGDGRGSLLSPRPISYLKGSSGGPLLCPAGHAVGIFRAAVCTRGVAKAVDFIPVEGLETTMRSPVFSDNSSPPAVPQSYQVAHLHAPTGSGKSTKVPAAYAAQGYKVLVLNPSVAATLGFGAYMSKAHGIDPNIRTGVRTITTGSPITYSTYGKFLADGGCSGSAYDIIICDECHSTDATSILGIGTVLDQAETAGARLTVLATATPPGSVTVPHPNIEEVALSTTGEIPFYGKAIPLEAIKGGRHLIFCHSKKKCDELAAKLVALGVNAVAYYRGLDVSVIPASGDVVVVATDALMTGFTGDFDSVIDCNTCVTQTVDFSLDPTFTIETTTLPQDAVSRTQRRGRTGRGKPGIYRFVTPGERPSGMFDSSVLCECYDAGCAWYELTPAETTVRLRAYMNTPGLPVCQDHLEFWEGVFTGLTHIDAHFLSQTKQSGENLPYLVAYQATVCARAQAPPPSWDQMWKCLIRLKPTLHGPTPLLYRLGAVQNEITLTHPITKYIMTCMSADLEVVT
assay: Inhibitory activity against hepatitis C virus (HCV) NS3 protease (full-length)
Parameters: species or system Hepacivirus hominis
Where a SMILES comes first, the peptide text is derived from it. [ ]: non-standard residue; d: D form. Dip = N[C@H](C(=O)O)C(c1ccccc1)c1ccccc1; Cha = N[C@@H](CC1CCCCC1)C(=O)O
Give your result in nM as a bare value.

Example compounds with recorded Ki:
{"compound": "CC[C@H](C)[C@H](NC(=O)[C@@H](NC(C)=O)C(c1ccccc1)c1ccccc1)C(=O)N[C@@H](CC1CCCCC1)C(=O)N[C@@H](CS)C(=O)O (Ac-[Dip]I[Cha]C-OH)", "result.number": 2100}
{"compound": "CC[C@H](C)[C@H](NC(=O)[C@@H](NC(=O)[C@H](CCC(=O)O)NC(=O)[C@H](CC(=O)O)NC(C)=O)C(c1ccccc1)c1ccccc1)C(=O)N[C@@H](CC1CCCCC1)C(=O)N[C@@H](CS)C(=O)O (Ac-DE[Dip]I[Cha]C-OH)", "result.number": 220}

GET /values?readout=Ki&item= CC(C)C[C@H](NC(=O)[C@@H](CCC(=O)O)NC(=O)[C@@H](N)CC(=O)O)C(=O)N[C@@H](CCC(=O)O)C(=O)N[C@@H](CC1CCCCC1)C(=O)N[C@@H](CS)C(=O)O
1540

And then CC(=O)N[C@H](C(=O)N[C@@H](CCC(=O)O)C(=O)N[C@@H](CC1CCCCC1)C(=O)N[C@@H](CS)C(=O)O)C(c1ccccc1)c1ccccc1 (Ac-[Dip]E[Cha]C-OH) , what is it?
1100

And CC(=O)N[C@@H](CC(=O)O)C(=O)N[C@@H](CCC(=O)O)C(=O)N[C@@H](CC(C)C)C(=O)N[C@@H](CCC(=O)O)C(=O)N[C@@H](CC1CCCCC1)C(=O)N[C@@H](CS)C(=O)O ?
490
